# Tested on: Rattus norvegicus
# ASSAY_DETAILS: Antiinflammatory activity in rat assessed as inhibition of formalin-induced paw oedema at 100 mg/kg, ip after 2 hrs
# Assay type: functional
# CONDITION_LABEL: route intraperitoneal
MEASURED_METRIC: inhibition in vivo at 100 mg/kg
State the result as a value with its unit after it.

Cc1cccc2c(CNc3nc(-c4cc5cc(Br)ccc5oc4=O)cs3)cc(=O)[nH]c12	9.19%
Cc1cccc2c(CNc3nc(-c4cc5cc(Br)cc(Br)c5oc4=O)cs3)cc(=O)[nH]c12	16.3%
O=c1cc(CNc2nc(-c3cc4cc(Br)ccc4oc3=O)cs2)c2cc(Cl)ccc2[nH]1	5.26%
O=c1cc(CNc2nc(-c3cc4cc(Br)cc(Br)c4oc3=O)cs2)c2ccc(Cl)cc2[nH]1	13%

I'd like to know its inhibition in vivo at 100 mg/kg. The compound in question is O=c1cc(CNc2nc(-c3cc4cc(Br)ccc4oc3=O)cs2)c2ccc(Cl)cc2[nH]1
9.09%

I'd like to know its inhibition in vivo at 100 mg/kg. The compound in question is O=c1cc(CNc2nc(-c3cc4cc(Br)cc(Br)c4oc3=O)cs2)c2cc(Cl)ccc2[nH]1
17.8%

I'd like to know its inhibition in vivo at 100 mg/kg. The compound in question is CC(=O)Oc1ccccc1C(=O)O
29.9%
